Taken from PubChem BioAssay AID2060354.

Tested on: 519858-162-T-J1-PDC spheroid growth inhibition
EXPERIMENT_SUMMARY: Anticancer human tumor 519858-162-T-J1-PDC patient-derived colon adenocarcinoma cell line growth inhibition [TAK]
PARTICULARS: curve of first compound; second compound 30 µM; spheroids with HUVEC and MSC

MOLECULE	CMP	IC50 (nM)
Cc1nc(NC(=O)N2CCCC2C(N)=O)sc1-c1ccnc(C(C)(C)C(F)(F)F)c1 (stereo not given) + CC(C)NCC(C(=O)N1CCN(c2ncnc3c2C(C)CC3O)CC1)c1ccc(Cl)cc1	>	10000
CC(C)CC(NC(=O)CNC(=O)c1cc(Cl)ccc1Cl)B1OC(=O)CC(CC(=O)O)(C(=O)O)O1 (stereo not given) + CC(C)NCC(C(=O)N1CCN(c2ncnc3c2C(C)CC3O)CC1)c1ccc(Cl)cc1	>	100
CCCS(=O)(=O)Nc1ccc(F)c(C(=O)c2c[nH]c3ncc(-c4ccc(Cl)cc4)cc23)c1F + CC(C)NCC(C(=O)N1CCN(c2ncnc3c2C(C)CC3O)CC1)c1ccc(Cl)cc1	=	30400
Cn1cnc2c(F)c(Nc3ccc(Br)cc3Cl)c(C(=O)NOCCO)cc21 + CC(C)NCC(C(=O)N1CCN(c2ncnc3c2C(C)CC3O)CC1)c1ccc(Cl)cc1	=	162
COC1CC2CCC(C)C(O)(O2)C(=O)C(=O)N2CCCCC2C(=O)OC(C(C)CC2CCC(OCCO)C(OC)C2)CC(=O)C(C)C=C(C)C(O)C(OC)C(=O)C(C)CC(C)C=CC=CC=C1C (stereo not given) + CC(C)NCC(C(=O)N1CCN(c2ncnc3c2C(C)CC3O)CC1)c1ccc(Cl)cc1	>	100
CC(C)CC(NC(=O)C(Cc1ccccc1)NC(=O)c1cnccn1)B(O)O (stereo not given) + CC(C)NCC(C(=O)N1CCN(c2ncnc3c2C(C)CC3O)CC1)c1ccc(Cl)cc1	>	10
COc1c(OCCCN2CCOCC2)ccc2c3n(c(=NC(=O)c4cnc(N)nc4)nc12)CCN3 + CC(C)NCC(C(=O)N1CCN(c2ncnc3c2C(C)CC3O)CC1)c1ccc(Cl)cc1	=	276
CC(C)(C)c1nc(-c2cccc(NS(=O)(=O)c3c(F)cccc3F)c2F)c(-c2ccnc(N)n2)s1 + CC(C)NCC(C(=O)N1CCN(c2ncnc3c2C(C)CC3O)CC1)c1ccc(Cl)cc1	>	10000
CC(=O)Nc1cccc(-n2c(=O)n(C3CC3)c(=O)c3c(Nc4ccc(I)cc4F)n(C)c(=O)c(C)c32)c1 + CC(C)NCC(C(=O)N1CCN(c2ncnc3c2C(C)CC3O)CC1)c1ccc(Cl)cc1	=	9.07
CC(C)n1nc(-c2ccc3oc(N)nc3c2)c2c(N)ncnc21 + CC(C)NCC(C(=O)N1CCN(c2ncnc3c2C(C)CC3O)CC1)c1ccc(Cl)cc1	>	100

---

Test system: 519858-162-T-J1-PDC spheroid growth inhibition
EXPERIMENT_SUMMARY: Anticancer human tumor 519858-162-T-J1-PDC cell line growth inhibition [TAK];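 note: spheroids exposed to drugs for 7 days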
PARTICULARS: second compound 0.3 µM; first compound 0.000316 µM; stronger effect = lower value; spheroids with HUVEC and MSC
Experimental: Combinatorial screen of targeted agents with TAK-243 and ipatasertib in multi-cell type tumor spheroids […] Compounds. […] If the clinical Cmax for an agent had not been determined, the highest concentration tested was 10 microM. NCI60 Cell Culture. […] The optimal seeding densities for each of the cell lines at each time point assessed were determined prior to performing the concentration response studies. […]
Entries and their measured viability, T/C follow.

COMPOUND	TARGET_OR_TEST_SYSTEM	viability, T/C / %
CC(C)CC(NC(=O)C(Cc1ccccc1)NC(=O)c1cnccn1)B(O)O (centres undefined) + CC(C)NCC(C(=O)N1CCN(c2ncnc3c2C(C)CC3O)CC1)c1ccc(Cl)cc1	519858-162-T-J1-PDC spheroid growth inhibition	75.7
COC1CC2CCC(C)C(O)(O2)C(=O)C(=O)N2CCCCC2C(=O)OC(C(C)CC2CCC(OCCO)C(OC)C2)CC(=O)C(C)C=C(C)C(O)C(OC)C(=O)C(C)CC(C)C=CC=CC=C1C (centres undefined) + CC(C)NCC(C(=O)N1CCN(c2ncnc3c2C(C)CC3O)CC1)c1ccc(Cl)cc1	519858-162-T-J1-PDC spheroid growth inhibition	102
CC(C)n1nc(-c2ccc3oc(N)nc3c2)c2c(N)ncnc21 + CC(C)NCC(C(=O)N1CCN(c2ncnc3c2C(C)CC3O)CC1)c1ccc(Cl)cc1	519858-162-T-J1-PDC spheroid growth inhibition	110
CC(C)CC(NC(=O)CNC(=O)c1cc(Cl)ccc1Cl)B1OC(=O)CC(CC(=O)O)(C(=O)O)O1 (centres undefined) + CC(C)NCC(C(=O)N1CCN(c2ncnc3c2C(C)CC3O)CC1)c1ccc(Cl)cc1	519858-162-T-J1-PDC spheroid growth inhibition	94.4
